Test: Half life in ICR mouse at 5 mg/kg, iv and 10 mg/kg, po
Assay type: ADME, organism-based
Conditions: in vivo
Test readout: half-life (h)
Quick reminder: number only, in h, skip the unit.

Request: Requested field: half-life. Item: `CC[C@H](NC(=O)[C@@H]1C[C@@H](S(=O)(=O)c2ccccc2)CN1C(C)=O)C(=O)c1nc2ccccc2o1`
Response: 1.6

###

Molecular target: Cathepsin K (Homo sapiens)
Sequence (P43235 whole entry): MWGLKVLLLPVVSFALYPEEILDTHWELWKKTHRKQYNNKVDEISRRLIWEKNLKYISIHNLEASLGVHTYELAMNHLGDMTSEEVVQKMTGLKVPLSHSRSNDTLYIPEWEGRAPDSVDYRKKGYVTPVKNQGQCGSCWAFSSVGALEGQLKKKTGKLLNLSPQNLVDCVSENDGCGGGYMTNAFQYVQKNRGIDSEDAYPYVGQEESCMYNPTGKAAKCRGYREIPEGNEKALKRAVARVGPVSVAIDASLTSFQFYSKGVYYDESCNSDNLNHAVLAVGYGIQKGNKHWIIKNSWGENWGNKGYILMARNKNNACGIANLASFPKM
Catalogue of IC50 values

CC(C)C[C@@H](NC(=O)N1CCOCC1)C(=O)N[C@@H](/C=C/S(=O)(=O)c1ccccc1)CCc1ccccc1
0.004 µM
CC[C@H](NC(=O)[C@@H]1C[C@@H](S(=O)(=O)c2ccccc2)CN1C(C)=O)C(=O)c1nc2ccccc2o1
> 10 µM
CCC(NC(=O)[C@@H]1C[C@@H](S(=O)(=O)c2ccccc2)CN1C(=O)c1ccccc1)C(=O)c1nc2ccccc2o1 (stereo partly specified)
> 10 µM
CCC(NC(=O)[C@@H]1C[C@@H](S(=O)(=O)c2ccccc2)CN1C(=O)c1cccc(Cl)c1)C(=O)c1nc2ccccc2o1 (stereo partly specified)
> 1 µM
CCC(NC(=O)[C@@H]1C[C@@H](S(=O)(=O)c2ccccc2)CN1C(=O)C1CCCCC1)C(=O)c1nc2ccccc2o1 (stereo partly specified)
> 10 µM

Shifting focus to the molecule that follows.
Request: Field: IC50 (Cathepsin K (Homo sapiens)). Entry: CCC(NC(=O)[C@@H]1C[C@@H](S(=O)(=O)c2ccccc2)CN1C(=O)c1ccc(-c2ccccc2)cc1)C(=O)c1nc2ccccc2o1 (stereo partly specified)
Response: > 10 µM
